- target-or-test-system: human nerve growth factor (beta-NGF) (human, UniProt P01138 122-241)
- Sequence (P01138 122-241): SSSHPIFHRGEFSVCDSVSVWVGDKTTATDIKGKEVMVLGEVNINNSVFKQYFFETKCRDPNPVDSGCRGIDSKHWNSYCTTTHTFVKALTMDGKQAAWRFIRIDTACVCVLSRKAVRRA
- assay-notes: cell-based or functional assay

- binder: "1131H2 human IgG4 (antibody, V domains shown) VH: EVQLVQSGAEVKKPGSTVKVSCKASGGTFSTYGISWVRQAPGQGLEWIGGIIPIFDTGNSAQSFQGRVTITADESTSTAYMEVSSLRSDDTAVYYCASSSRIYDLNPSLTAYYDMDVWGQGTMVTVSS VL: QAVLTQPSSVSTPPGQKVTISCSGTSSNIGNNYVSWYQQLPGTAPKLLIYDNNKRPSGIPDRFSGSKSGTSATLGITGLQTGDEADYYCGTWDSSLSAWVFGGGTKLTVL"
  IC50, FLIPR calcium mobilisation, nM: 0.27
- binder: "1230H7 human IgG4 (antibody, V domains shown) VH: EMQLVQSGAEVKKPGSSVKVSCKASGGTFSTYGISWVRQAPGQGLEWIGGIIPIFDTGNSAQSFQGRVTITADESTSTAYMEVSSLRSDDTAVYYCASSSRIYDFNSALISYYDMDVWGQGTMVTVSS VL: QAVLTQPSSVSTPPGQKVTISCSGSSSNIGNNYVSWYQQLPGTAPKLLIYDNNKRPSGIPDRFSGSKSGTSATLGITGLQTGDEADYYCGTWDSSLSAWVFGGGTKLTV"
  IC50, FLIPR calcium mobilisation, nM: 0.27
- binder: "1126G5 human IgG4 (antibody, V domains shown) VH: EVQLVQSGAEVKKPGSSVKVSCKASGGTFSTYGISWVRQAPGQGLEWIGGIIPIFDTGNSAQSFQGRVTITADESTSTAYMEVSSLRSDDTAVYYCASSSRIYDFTSGLAPYYDMDVWGQGTMVTVSS VL: QAVLTQPSSVSTPPGQKVTISCSGSSSNIGNNYVSWYQQLPGTAPKLLIYDNNKRPPGIPDRFSGSKSGTSATLGITGLQTGDEADYYCGTWDSSLSTWVFGGGTKLTVL"
  IC50, FLIPR calcium mobilisation, nM: 0.23
- binder: "1133C11 human IgG4 (antibody, V domains shown) VH: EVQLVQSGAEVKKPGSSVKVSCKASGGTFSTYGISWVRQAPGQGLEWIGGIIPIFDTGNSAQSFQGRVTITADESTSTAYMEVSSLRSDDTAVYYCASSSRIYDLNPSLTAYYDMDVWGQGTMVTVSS VL: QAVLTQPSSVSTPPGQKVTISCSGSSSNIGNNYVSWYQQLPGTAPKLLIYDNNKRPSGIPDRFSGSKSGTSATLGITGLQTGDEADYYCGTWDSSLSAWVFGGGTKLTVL"
  IC50, FLIPR calcium mobilisation, nM: 0.45
